The following compounds are listed with their measured Ki values.
target: human glucocorticoid receptor (Homo sapiens, UniProt P04150); construct: purified human recombinant full-length glucocorticoid receptor (2 nM); purchased Invitrogen Part #2893; assay: Glucocorticoid Receptor Binding Assay (I), fluorescence polarization competitor kit; settings: purified human recombinant full-length GR, Fluormone GS Red, 2 h room temperature
Sequence (P04150 whole entry): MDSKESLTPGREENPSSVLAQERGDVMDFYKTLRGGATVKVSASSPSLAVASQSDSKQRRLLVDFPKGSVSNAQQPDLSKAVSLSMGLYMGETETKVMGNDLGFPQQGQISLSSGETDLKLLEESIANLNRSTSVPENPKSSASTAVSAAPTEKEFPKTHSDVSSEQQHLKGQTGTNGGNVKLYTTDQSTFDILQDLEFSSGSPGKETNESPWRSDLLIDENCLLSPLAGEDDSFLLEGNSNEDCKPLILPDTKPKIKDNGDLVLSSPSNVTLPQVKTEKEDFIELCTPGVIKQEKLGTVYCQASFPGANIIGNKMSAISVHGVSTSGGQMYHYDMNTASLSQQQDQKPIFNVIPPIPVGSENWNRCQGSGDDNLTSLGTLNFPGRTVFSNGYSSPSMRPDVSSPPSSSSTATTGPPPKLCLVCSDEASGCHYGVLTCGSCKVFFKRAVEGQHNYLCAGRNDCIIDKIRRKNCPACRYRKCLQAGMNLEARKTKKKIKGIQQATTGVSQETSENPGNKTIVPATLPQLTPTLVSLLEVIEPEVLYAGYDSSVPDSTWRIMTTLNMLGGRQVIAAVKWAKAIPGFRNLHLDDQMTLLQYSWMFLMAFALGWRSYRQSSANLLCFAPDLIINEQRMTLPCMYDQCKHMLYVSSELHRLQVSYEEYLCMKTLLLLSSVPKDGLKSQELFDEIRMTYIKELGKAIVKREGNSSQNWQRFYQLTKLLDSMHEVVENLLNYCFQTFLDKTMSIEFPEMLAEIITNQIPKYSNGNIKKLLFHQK

Examples with answers:
(Q) # Ki lookup, item C[C@]12Cn3cnc(-c4ccc(F)cc4)c3C=C1CCC[C@@H]2C(=O)c1csc2ccccc12 (single isomer, unassigned) [Example 44]
(A) > 1150 nM

(Q) For CC(=O)[C@H]1CCCC2=Cc3c(-c4ccccc4)ncn3C[C@@]21C , what is its reported Ki?
(A) > 1150 nM

Attention now turns to another entry.
(Q) What measured Ki goes with C[C@]12Cn3cnc(-c4ccc(F)cc4)c3C=C1CCC[C@@H]2C(=O)c1csc2ccccc12 (single isomer, unassigned) [Example 43] ?
(A) > 1150 nM

====

target: human glucocorticoid receptor (Homo sapiens); construct: purified human recombinant full-length glucocorticoid receptor (2 nM); purchased Invitrogen Part #2893; assay: Glucocorticoid Receptor Binding Assay (I), fluorescence polarization competitor kit; conditions: purified human recombinant full-length GR, Fluormone GS Red, 2 h room temperature
readout label: Ki (nM)

Sample answers from the record:
(Q) Item COc1cccc([C@@H](O)[C@H]2CCCC3=Cc4c(-c5ccccc5)ncn4C[C@@]32C)c1 (racemic) with human glucocorticoid receptor (Homo sapiens) - Ki?
(A) 57.5

(Q) Hi! What's the reported Ki for CO[C@](C)(c1cccs1)[C@H]1CCCC2=Cc3c(-c4ccc(F)cc4)ncn3C[C@@]21C on human glucocorticoid receptor (Homo sapiens)?
(A) 69.8

(Q) Record C[C@]12Cn3cnc(-c4ccc(F)cc4)c3C=C1CCC[C@@H]2[C@](C)(O)c1ncccn1 : what is its Ki with human glucocorticoid receptor (Homo sapiens)?
(A) 68.2

(Q) # value lookup — system human glucocorticoid receptor (Homo sapiens), readout Ki, item C[C@@H](O)[C@H]1CCCC2=Cc3c(-c4ccccc4)ncn3C[C@@]21C (racemic)
(A) 202

I: COc1ccc([C@@H](O)[C@H]2CCCC3=Cc4c(-c5ccccc5)ncn4C[C@@]32C)cc1 (racemic)
II: C[C@]12Cn3cnc(-c4ccc(F)cc4)c3C=C1CCC[C@@H]2CNc1nccs1
(Q) Sorting ascending by Ki, which comes first: I or II ? Bench note: the answer is the label of the chosen record.
(A) I
